B1: Pistol ribozyme (parent)
chain: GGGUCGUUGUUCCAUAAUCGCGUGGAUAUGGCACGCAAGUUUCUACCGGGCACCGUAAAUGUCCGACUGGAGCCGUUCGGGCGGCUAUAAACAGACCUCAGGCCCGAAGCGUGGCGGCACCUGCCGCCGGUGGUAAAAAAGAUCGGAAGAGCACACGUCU

- Variants of: B1
- assay procedure: aptazyme ON/OFF ratio, guanine; higher = stronger switching; co-transcriptional cleavage with and without guanine
Reported values of aptazyme ON/OFF ratio for individual entries
Note: the reply should be a number with no unit written.

Sample answers from the record:
Query block: Entry under review: U7G G9C C13A . Reported aptazyme ON/OFF ratio?
Result block: 1.29

Query block: Entry under review: U7C U8G G9C U10G C12G C13U . Reported aptazyme ON/OFF ratio?
Result block: 1.13

Now look at this one.
Query block: Entry under review: U8G U10A U11A C13U . Reported aptazyme ON/OFF ratio?
Result block: 1.17

Provenance of the data: the RNAGym collection of RNA variant scans (doi:10.1021/acssynbio.7b00057)
